assay: Psilocybin and psilocin plasma pharmacokinetics after s.c. psilocybin; type: in vivo, rats; settings: rat, plasma, subcutaneous; after psilocybin 1 mg/kg s.c., rats, 0.5 h

compound	concentration at 0.5 h
CN(C)CCc1c[nH]c2cccc(O)c12 [psilocin, 4-hydroxy-N,N-dimethyltryptamine]	76.6 ng/mL

====

test: Psilocybin and psilocin plasma pharmacokinetics after s.c. psilocybin; format: in vivo, rats; settings: rat, plasma, subcutaneous; after psilocybin 0.1 mg/kg s.c., rats, 4 h
measured-metric: concentration at 4 h (ng/mL)

compound	measured-metric	measurement
CN(C)CCc1c[nH]c2cccc(O)c12 [psilocin, 4-hydroxy-N,N-dimethyltryptamine]	concentration at 4 h	0.535

====

experiment: Psilocybin and psilocin plasma pharmacokinetics after s.c. psilocybin; type: in vivo, rats; details: rat, plasma, subcutaneous; after psilocybin 10 mg/kg s.c., rats, 0.25 h
measured-metric: concentration at 0.25 h (ng/mL)

molecule	unit-symbol	measurement
CN(C)CCc1c[nH]c2cccc(O)c12 [psilocin, 4-hydroxy-N,N-dimethyltryptamine]	ng/mL	704

====

assay: Psilocybin and psilocin plasma pharmacokinetics after s.c. psilocybin; format: in vivo, rats; settings: rat, plasma, subcutaneous, 1 mg/kg, psilocybin 1 mg/kg, rats, after 30 mins; read-out: Cmax psilocin

compound	Cmax
CN(C)CCc1c[nH]c2cccc(O)c12 [psilocin, 4-hydroxy-N,N-dimethyltryptamine]	~83 ng/mL

====

assay: Psilocybin and psilocin plasma pharmacokinetics after s.c. psilocybin; type: in vivo, rats; settings: rat, sc; psilocin in plasma after psilocybin 0.1 mg/kg s.c., rats; read-out: MRT0-inf, Mean
measured-metric: MRT inf

molecule	measurement
CN(C)CCc1c[nH]c2cccc(O)c12 [psilocin, 4-hydroxy-N,N-dimethyltryptamine]	1.42 h

====

test: Psilocybin and psilocin plasma pharmacokinetics after s.c. psilocybin; format: in vivo, rats; details: rat, sc; psilocin in plasma after psilocybin 1 mg/kg s.c., rats; read-out: AUC0-inf, Mean
measured-metric: AUC(0-inf) (ng·h/mL)

compound	measurement
CN(C)CCc1c[nH]c2cccc(O)c12 [psilocin, 4-hydroxy-N,N-dimethyltryptamine]	143

====

test: Psilocybin and psilocin plasma pharmacokinetics after s.c. psilocybin; format: in vivo, rats; conditions: rat, plasma, subcutaneous; after psilocybin 10 mg/kg s.c., rats, 1 h

compound	concentration at 1 h / ng/mL
CN(C)CCc1c[nH]c2cccc(O)c12 [psilocin, 4-hydroxy-N,N-dimethyltryptamine]	1070

====

Experiment: Psilocybin and psilocin plasma pharmacokinetics after s.c. psilocybin
Type: in vivo, rats
Details: rat, sc; psilocin in plasma after psilocybin 10 mg/kg s.c., rats
Protocol: Psilocybin doses of 0.05, 0.1, 1, 10 mg/kg were used to evaluate psilocybin and psilocin PK in rats. For the doses of psilocybin that positively effect behaviors in the low performers in the PR and 5CSRTT, e.g., 0.05-0.1 mg/kg, the corresponding Cm. of psilocin was ˜7±2 ng/ml at 30 minutes for 0.05 mg/kg, and at a dose of 0.1 mg/kg, the Cm. of psilocin was determined to be ˜12±3 ng/ml at 30 minutes (FIG. 5). […]

compound	Tmax (min)
CN(C)CCc1c[nH]c2cccc(O)c12 [psilocin, 4-hydroxy-N,N-dimethyltryptamine]	42.8

====

experiment: Psilocybin and psilocin plasma pharmacokinetics after s.c. psilocybin; format: in vivo, rats; conditions: rat, plasma, subcutaneous; after psilocybin 0.1 mg/kg s.c., rats, 2 h
measured-metric: concentration at 2 h (ng/mL)

compound	measured-metric	measurement
CN(C)CCc1c[nH]c2cccc(O)c12 [psilocin, 4-hydroxy-N,N-dimethyltryptamine]	concentration at 2 h	2.78

====

test: Psilocybin and psilocin plasma pharmacokinetics after s.c. psilocybin; assay type: in vivo, rats; details: rat, plasma, subcutaneous, 0.05 mg/kg, psilocybin 0.05 mg/kg, rats, after 30 mins; read-out: Cmax psilocin

compound	Cmax
CN(C)CCc1c[nH]c2cccc(O)c12 [psilocin, 4-hydroxy-N,N-dimethyltryptamine]	~7 ng/mL

====

assay: Psilocybin and psilocin plasma pharmacokinetics after s.c. psilocybin; format: in vivo, rats; settings: rat, sc; psilocin in plasma after psilocybin 10 mg/kg s.c., rats; read-out: Apparent t1/2, Mean (converted)

compound	unit-symbol	half-life
CN(C)CCc1c[nH]c2cccc(O)c12 [psilocin, 4-hydroxy-N,N-dimethyltryptamine]	h	1.65

====

assay: Psilocybin and psilocin plasma pharmacokinetics after s.c. psilocybin; format: in vivo, rats; details: rat, plasma, subcutaneous, 10 mg/kg, psilocybin 10 mg/kg, rats, after 30 mins; read-out: Cmax psilocin

molecule	Cmax
CN(C)CCc1c[nH]c2cccc(O)c12 [psilocin, 4-hydroxy-N,N-dimethyltryptamine]	~1110 ng/mL

====

experiment: Psilocybin and psilocin plasma pharmacokinetics after s.c. psilocybin; type: in vivo, rats; conditions: rat, plasma, sc, 10 mg/kg, psilocin in plasma after psilocybin 10 mg/kg s.c., rats; read-out: Cmax, Mean
measured-metric: Cmax (ng/mL)

molecule	measurement
CN(C)CCc1c[nH]c2cccc(O)c12 [psilocin, 4-hydroxy-N,N-dimethyltryptamine]	1110

====

assay: Psilocybin and psilocin plasma pharmacokinetics after s.c. psilocybin; format: in vivo, rats; conditions: rat, plasma, subcutaneous; after psilocybin 0.05 mg/kg s.c., rats, 0.75 h
measured-metric: concentration at 0.75 h

compound	measured-metric	measurement
CN(C)CCc1c[nH]c2cccc(O)c12 [psilocin, 4-hydroxy-N,N-dimethyltryptamine]	concentration at 0.75 h	3.11 ng/mL

====

assay: Psilocybin and psilocin plasma pharmacokinetics after s.c. psilocybin; format: in vivo, rats; conditions: rat, plasma, subcutaneous; after psilocybin 0.1 mg/kg s.c., rats, 0.75 h
measured-metric: concentration at 0.75 h

compound	measurement
CN(C)CCc1c[nH]c2cccc(O)c12 [psilocin, 4-hydroxy-N,N-dimethyltryptamine]	7.73 ng/mL

====

experiment: Psilocybin and psilocin plasma pharmacokinetics after s.c. psilocybin; assay type: in vivo, rats; conditions: rat, plasma, subcutaneous; after psilocybin 10 mg/kg s.c., rats, 0.5 h

compound	unit-symbol	concentration at 0.5 h
CN(C)CCc1c[nH]c2cccc(O)c12 [psilocin, 4-hydroxy-N,N-dimethyltryptamine]	ng/mL	898

====

Assay: Psilocybin and psilocin plasma pharmacokinetics after s.c. psilocybin
Assay type: in vivo, rats
Conditions: rat, plasma, subcutaneous; after psilocybin 10 mg/kg s.c., rats, 0.75 h
Description: Psilocybin doses of 0.05, 0.1, 1, 10 mg/kg were used to evaluate psilocybin and psilocin PK in rats. For the doses of psilocybin that positively effect behaviors in the low performers in the PR and 5CSRTT, e.g., 0.05-0.1 mg/kg, the corresponding Cm. of psilocin was ˜7±2 ng/ml at 30 minutes for 0.05 mg/kg, and at a dose of 0.1 mg/kg, the Cm. of psilocin was determined to be ˜12±3 ng/ml at 30 minutes (FIG. 5). […]
measured-metric: concentration at 0.75 h

compound	measurement
CN(C)CCc1c[nH]c2cccc(O)c12 [psilocin, 4-hydroxy-N,N-dimethyltryptamine]	1080 ng/mL

====

assay: Psilocybin and psilocin plasma pharmacokinetics after s.c. psilocybin; format: in vivo, rats; details: rat, plasma, subcutaneous; after psilocybin 1 mg/kg s.c., rats, 0.75 h

molecule	concentration at 0.75 h, ng/mL
CN(C)CCc1c[nH]c2cccc(O)c12 [psilocin, 4-hydroxy-N,N-dimethyltryptamine]	70.3

====

assay: Psilocybin and psilocin plasma pharmacokinetics after s.c. psilocybin; assay type: in vivo, rats; conditions: rat, plasma, subcutaneous; after psilocybin 1 mg/kg s.c., rats, 2 h
measured-metric: concentration at 2 h (ng/mL)

compound	unit-symbol	measurement
CN(C)CCc1c[nH]c2cccc(O)c12 [psilocin, 4-hydroxy-N,N-dimethyltryptamine]	ng/mL	29.7

====

assay: Psilocybin and psilocin plasma pharmacokinetics after s.c. psilocybin; assay type: in vivo, rats; conditions: rat, sc; psilocin in plasma after psilocybin 0.05 mg/kg s.c., rats; read-out: AUC0-tlast, Mean
measured-metric: AUC(0-t)

compound	measurement
CN(C)CCc1c[nH]c2cccc(O)c12 [psilocin, 4-hydroxy-N,N-dimethyltryptamine]	10.1 ng·h/mL

====

Assay: Psilocybin and psilocin plasma pharmacokinetics after s.c. psilocybin
Assay type: in vivo, rats
Details: rat, plasma, sc, 1 mg/kg, psilocin in plasma after psilocybin 1 mg/kg s.c., rats; read-out: Cmax, Mean
Protocol: Psilocybin doses of 0.05, 0.1, 1, 10 mg/kg were used to evaluate psilocybin and psilocin PK in rats. For the doses of psilocybin that positively effect behaviors in the low performers in the PR and 5CSRTT, e.g., 0.05-0.1 mg/kg, the corresponding Cm. of psilocin was ˜7±2 ng/ml at 30 minutes for 0.05 mg/kg, and at a dose of 0.1 mg/kg, the Cm. of psilocin was determined to be ˜12±3 ng/ml at 30 minutes (FIG. 5). […]
measured-metric: Cmax (ng/mL)

compound	measured-metric	measurement
CN(C)CCc1c[nH]c2cccc(O)c12 [psilocin, 4-hydroxy-N,N-dimethyltryptamine]	Cmax	83.3

====

Test: Psilocybin and psilocin plasma pharmacokinetics after s.c. psilocybin
Assay type: in vivo, rats
Conditions: rat, plasma, subcutaneous; after psilocybin 1 mg/kg s.c., rats, 4 h
Protocol: Psilocybin doses of 0.05, 0.1, 1, 10 mg/kg were used to evaluate psilocybin and psilocin PK in rats. For the doses of psilocybin that positively effect behaviors in the low performers in the PR and 5CSRTT, e.g., 0.05-0.1 mg/kg, the corresponding Cm. of psilocin was ˜7±2 ng/ml at 30 minutes for 0.05 mg/kg, and at a dose of 0.1 mg/kg, the Cm. of psilocin was determined to be ˜12±3 ng/ml at 30 minutes (FIG. 5). […]
measured-metric: concentration at 4 h (ng/mL)

compound	measurement
CN(C)CCc1c[nH]c2cccc(O)c12 [psilocin, 4-hydroxy-N,N-dimethyltryptamine]	5.5

Taken from patent US20230233584A1.
